System: Kochia (Kochia scoparia)
Assay: Test A postemergence
Format: in vivo
Settings: 500 g ai/ha, postemergence; visual injury, 0 to 100 scale (0 no effect, 100 complete control), approx. 10 d
readout.kind: Plant response rating, Kochia
I'd appreciate a reply containing only the number, no unit.

Worked examples follow.
{"compound": "Cc1cccc(C2CN(C)C(=O)C2C(=O)Nc2cccc(F)c2F)c1 (stereo not shown)", "target.entity": "Kochia (Kochia scoparia)", "Plant response rating, Kochia": 60}
{"compound": "CC(=O)c1ccccc1NC(=O)C1C(=O)NCC1c1cccc(C(F)(F)F)c1 (racemic)", "target.entity": "Kochia (Kochia scoparia)", "Plant response rating, Kochia": 0}
{"compound": "Cc1ccc(C2CN(C)C(=O)C2C(=O)Nc2cccc(F)c2F)cc1 (stereo not shown)", "target.entity": "Kochia (Kochia scoparia)", "Plant response rating, Kochia": 70}

Lab note: next compound to report on.
Request the reported Plant response rating, Kochia associated with CN1CC(c2cccc(C(F)(F)F)c2)C(C(=O)Nc2cccc(F)c2F)C1=O (stereo not shown)
60

###

Catalogue of Plant response rating, Ragweed values
System: ragweed (common ragweed, Ambrosia elatior)
Assay: Test A postemergence
Assay type: in vivo
Details: Postemergence, 500 g ai/ha; 0 to 100 scale where 0 is no effect and 100 is complete control
Excerpt: […]
// no unit string in output, number only

Some solved cases for reference:
{"compound": "O=C1NCC(c2ccc(C(F)(F)F)c(F)c2)C1C(=O)Nc1ccc(F)cc1F (racemic)", "Plant response rating, Ragweed": 0}
{"compound": "O=C1NCC(c2ccnc(C(F)(F)F)c2)C1C(=O)Nc1cccc(F)c1F (racemic)", "Plant response rating, Ragweed": 20}

Proceed to the following item.
Provide value of Plant response rating, Ragweed for this record tested with ragweed (common ragweed, Ambrosia elatior): C=CCN1CC(c2cccc(C(F)(F)F)c2)C(C(=O)Nc2cccc(F)c2F)C1=O (stereo not drawn)
0

###

Tested on: barnyardgrass (Echinochloa crus-galli)
Experiment: Test G Post-Emergence Protocol
Format: in vivo
Settings: Echinochloa crus-galli, post-emergence, 312 h, 15.625 g ai/ha, evaluated after 13 days (100=total damage to plant; 0=no damage to plant), read-out: Barnyardgrass damage rating
readout.kind: pest or weed control at 15.625 g/ha (%)
Report as a plain number; the unit % is understood.

In the examples that follow, each entry is paired with its recorded pest or weed control at 15.625 g/ha.
{"compound": "CN1C[C@H](c2ccc(C(F)(F)F)cc2)[C@@H](C(=O)Nc2ccc(F)c(Cl)c2)C1=O (racemic)", "target.entity": "barnyardgrass (Echinochloa crus-galli)", "test.result": 0}
{"compound": "CN1C[C@@H](c2ccc(C(F)(F)F)cc2)[C@H](C(=O)Nc2ccnc(Cl)c2F)C1=O (racemic)", "target.entity": "barnyardgrass (Echinochloa crus-galli)", "test.result": 10}
{"compound": "CCOc1cc([C@@H]2CN(C)C(=O)[C@H]2C(=O)Nc2cccc(F)c2F)cc(C(F)(F)F)n1 (racemic)", "target.entity": "barnyardgrass (Echinochloa crus-galli)", "test.result": 40}
{"compound": "CN1C[C@@H](c2ccc(C(F)(F)F)cc2)[C@H](C(=O)Nc2cncnc2)C1=O (racemic)", "target.entity": "barnyardgrass (Echinochloa crus-galli)", "test.result": 0}
{"compound": "CN1C[C@H](c2cc(Cl)cc(C(F)(F)F)c2)[C@@H](C(=O)Nc2ccccc2S(C)(=O)=O)C1=O (racemic)", "target.entity": "barnyardgrass (Echinochloa crus-galli)", "test.result": 30}

Read the next record carefully.
Fill in: pest or weed control at 15.625 g/ha of Cc1nc(F)ccc1NC(=O)[C@@H]1C(=O)N(C)C[C@H]1c1ccc(C(F)(F)F)cc1 (racemic) is ___
0

###

Quick reference for Plant response rating, Ryegrass, Italian among some compounds
Test system: ryegrass, Italian (Italian ryegrass, Lolium multiflorum)
Assay: Test A postemergence
Type: in vivo
Conditions: 125 g ai/ha, postemergence; visual rating after approx. 10 d, 0 to 100 scale (0 no effect, 100 complete control)

{"compound": "CN1CC(c2c(F)cccc2F)C(C(=O)Nc2cccc(F)c2F)C1=O (centres unmarked)", "Plant response rating, Ryegrass, Italian": 0}
{"compound": "Cc1cc(F)ccc1NC(=O)C1C(=O)N(C)CC1c1cccc(C(F)(F)F)c1 (centres unmarked)", "Plant response rating, Ryegrass, Italian": 60}
{"compound": "CN1CC(c2cccc(C(F)(F)F)c2)C(C(=O)Nc2cccc(F)c2F)C1=O (centres unmarked)", "Plant response rating, Ryegrass, Italian": 50}
{"compound": "CC(C)Oc1cccc(C2CN(C)C(=O)C2C(=O)Nc2ccccc2F)c1 (centres unmarked)", "Plant response rating, Ryegrass, Italian": 60}
{"compound": "O=C1NCC(c2ccc(Oc3ccccc3)cc2)C1C(=O)Nc1ccccc1Cl (racemic)", "Plant response rating, Ryegrass, Italian": 0}
{"compound": "CN1CC(c2ccc(C(F)(F)F)cc2)C(C(=O)Nc2ccccc2S(C)(=O)=O)C1=O (centres unmarked)", "Plant response rating, Ryegrass, Italian": 30}
{"compound": "Cc1ccc(C2CNC(=O)C2C(=O)Nc2ccc(F)c(F)c2F)cc1C(F)(F)F (racemic)", "Plant response rating, Ryegrass, Italian": 0}

Record request: Plant response rating, Ryegrass, Italian value, item CN1CC(c2cc(F)cc(F)c2)C(C(=O)Nc2ccccc2C(F)(F)F)C1=O (centres unmarked)
0

###

System: ivy-leaved morning glory (Ipomoea hederacea)
Assay: Test G Post-Emergence Protocol
Type: in vivo
Settings: Ipomoea, post-emergence, 312 h, 250 g ai/ha, evaluated after 13 days, 100=total damage to plant, 0=no damage to plant, read-out: Morningglory, Ivy-leaved damage rating
readout.kind: pest or weed control at 250 g/ha (%)
The response must be a number in % with no trailing unit.

// known answers, use as guide
{"compound": "COC(=O)c1cc([C@H]2CN(C)C(=O)[C@@H]2C(=O)Nc2cccc(F)c2F)ccc1F (racemic)", "readout.units": "%", "pest or weed control at 250 g/ha": 0}
{"compound": "CN1CC(c2cc(F)cc(OCC(F)(F)F)c2)C(C(=O)Nc2cccc(F)c2F)C1=O (stereo not drawn)", "readout.units": "%", "pest or weed control at 250 g/ha": 70}

Looking for the measured pest or weed control at 250 g/ha of Cc1cc([C@H]2CN(C)C(=O)[C@@H]2C(=O)Nc2ccc(F)c(F)c2F)cnn1 (racemic) , can you help?
0

Quick one: pest or weed control at 250 g/ha of CCOc1cc(C2CN(C)C(=O)C2C(=O)Nc2cccc(F)c2F)ccc1OC (stereo not drawn) ?
20

Item under review: CN1C[C@H](c2ccc(C(F)(F)F)cc2)[C@@H](C(=O)Nc2cccnc2S(C)(=O)=O)C1=O (racemic) . Reported pest or weed control at 250 g/ha?
0

Which pest or weed control at 250 g/ha is listed for Cc1c(F)ccc(NC(=O)[C@@H]2C(=O)N(C)C[C@H]2c2ccc(C(F)(F)F)cc2)c1Cl (racemic) ?
10

Give its pest or weed control at 250 g/ha value. Item: `CN1C[C@H](c2ccc(Cl)cc2)[C@@H](C(=O)Nc2ccc(F)nc2F)C1=O`
70

Entry COc1cc(C2CN(C)C(=O)C2C(=O)Nc2cccc(F)c2F)cc(F)c1F (stereo not drawn) has what pest or weed control at 250 g/ha?
60

Quick one: pest or weed control at 250 g/ha for CCOc1ccc([C@@H]2CN(C)C(=O)[C@H]2C(=O)Nc2cccc(F)c2C)cc1Cl (racemic) ?
10

Given the entry COCCOc1cccc([C@@H]2CN(C)C(=O)[C@H]2C(=O)Nc2cccc(F)c2C)c1 (racemic) , report its measured pest or weed control at 250 g/ha.
20

Give its pest or weed control at 250 g/ha value. Item: CN1CC(C2CCN=C(C(C)(C)C)N2)C(C(=O)Nc2ccc(F)c(F)c2F)C1=O (stereo not drawn)
0

Which pest or weed control at 250 g/ha is reported for this compound? COc1cc(C2CN(C)C(=O)C2C(=O)Nc2cccc(F)c2F)cc(OC)c1F (stereo not drawn)
70

###

Test system: pigweed (Amaranthus retroflexus)
Assay: Test A postemergence
Format: in vivo
Settings: Amaranthus retroflexus, post-emergence, 240 h, 125 g ai/ha, postemergence; visual injury after approximately 10 d; 0 to 100 scale (0 no effect, 100 complete control); read-out: Plant response rating, Pigweed
readout.kind: pest or weed control at 125 g/ha (%)
// units = %; emit number, no label

Solved cases below.
{"compound": "CN1C[C@H](c2ccc3c(c2)CCC3)[C@@H](C(=O)Nc2ccccc2F)C1=O", "pest or weed control at 125 g/ha [%]": 0}
{"compound": "Cc1cc([C@H]2CNC(=O)[C@@H]2C(=O)Nc2ccccc2F)ccc1F", "pest or weed control at 125 g/ha [%]": 0}
{"compound": "CN1C[C@H](c2cccc([N+](=O)[O-])c2)[C@@H](C(=O)Nc2cccc(F)c2F)C1=O (racemic)", "pest or weed control at 125 g/ha [%]": 0}
{"compound": "Cc1cc([C@H]2CNC(=O)[C@@H]2C(=O)Nc2ccccc2F)ccc1Cl", "pest or weed control at 125 g/ha [%]": 0}
{"compound": "CN1C[C@H](c2cc(F)cc(F)c2)[C@@H](C(=O)Nc2ccccc2S(C)(=O)=O)C1=O", "pest or weed control at 125 g/ha [%]": 20}

Dear colleague, I am looking for the recorded pest or weed control at 125 g/ha of the following compound: `CSc1ccccc1NC(=O)[C@H]1C(=O)N(C)C[C@@H]1c1ccc(C(F)F)cc1`
20

Name the recorded pest or weed control at 125 g/ha for `Cc1cc(F)cc([C@H]2CN(C)C(=O)[C@@H]2C(=O)Nc2ccc(F)c(F)c2F)c1` .
30

The values you see were collected from patent US12077503B2.
